Molecular target: G-protein coupled receptor 39 (Homo sapiens)
Assay: Agonist activity at human GPR39 receptor expressed in CHO cells assessed as increase in ca2+ flux relative to Zn2+
Assay type: functional, cell-based
Conditions: filed as positive allosteric modulator
property.label: Emax (%)
Give bare numbers, in %.

Example results:
- CNc1nc(NCc2ccccc2Cl)cc(-c2ccccn2)n1: 86
- N#Cc1ccc(N2CCN(Cc3cn4cc(Cl)ccc4n3)CC2)nc1: 48
- Cc1cc(NCc2ccc(F)cc2)n2ncc(-c3ccccn3)c2n1: 57
- CNc1nc(NC2CCCCC2)cc(-c2ccccn2)n1: 49
- Cc1cc(N2CCCC2c2cccnc2)n2ncc(-c3ccccn3)c2n1 (single isomer, unassigned; enantiomer 2): 64
- CNc1nc(Oc2ccccc2)cc(-c2ccccn2)n1: 58
- Cc1cc(NC(C)c2ccc(F)cc2)n2ncc(-c3ccccn3)c2n1 (single isomer, unassigned; enantiomer 1): 51
- Cc1cc(N2CCCC2c2cccnc2)n2ncc(-c3ccccn3)c2n1 (single isomer, unassigned; enantiomer 1): 58

Okay, here is my list. What is Emax for each of these?
1. Cc1cc(NC(C)c2ccc(F)cc2)n2ncc(-c3ccccn3)c2n1 (single isomer, unassigned; enantiomer 2)
2. CNC(=O)C(Nc1cc(C)nc2c(-c3ccccn3)cnn12)c1ccc(F)cc1 (racemic)
3. CNc1nc(NCc2ccc(NS(C)(=O)=O)cc2Cl)cc(-c2ccccn2)n1

68
75
84

* * *

Target: G-protein coupled receptor 39 (Homo sapiens, UniProt O43194)
Sequence (O43194 whole entry): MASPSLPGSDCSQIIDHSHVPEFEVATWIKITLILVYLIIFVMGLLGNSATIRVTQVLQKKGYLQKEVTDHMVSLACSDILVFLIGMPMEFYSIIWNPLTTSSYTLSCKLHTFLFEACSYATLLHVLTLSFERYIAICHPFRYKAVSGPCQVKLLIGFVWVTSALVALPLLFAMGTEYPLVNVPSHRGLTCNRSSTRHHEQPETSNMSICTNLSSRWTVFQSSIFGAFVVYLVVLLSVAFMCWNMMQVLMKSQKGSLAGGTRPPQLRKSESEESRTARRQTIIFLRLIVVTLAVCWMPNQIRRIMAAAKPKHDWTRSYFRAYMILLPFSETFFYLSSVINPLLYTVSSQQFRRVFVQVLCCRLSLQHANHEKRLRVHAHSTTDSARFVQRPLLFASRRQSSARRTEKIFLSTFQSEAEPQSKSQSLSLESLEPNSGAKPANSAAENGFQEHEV
Assay: Positive allosteric activity at human GPR39 receptor expressed in CHO cells assessed as increase in zn2+ induced ca2+ flux
Format: cell-based
property.label: pEC50
One number for each entry, as −log10 of the molar value.

- Cc1cc(N2CCC(c3ccccc3)C2)n2ncc(-c3ccccn3)c2n1 (single isomer, unassigned; enantiomer 2): 6.56
- CNc1cc(-c2ccccn2)nc(NC2CCCCC2)n1: 6.31
- Cn1cc(-c2ccc3nc(C(N)CCOCc4ccccc4)[nH]c(=O)c3c2)cn1 (stereo not given): 6.19

Here's the next entry for you.
// query pEC50 value for entry "CNc1nc(Oc2ccccc2)cc(-c2ccccn2)n1"
7.64

* * *

Target: G-protein coupled receptor 39 (Homo sapiens)
Sequence (O43194 whole entry): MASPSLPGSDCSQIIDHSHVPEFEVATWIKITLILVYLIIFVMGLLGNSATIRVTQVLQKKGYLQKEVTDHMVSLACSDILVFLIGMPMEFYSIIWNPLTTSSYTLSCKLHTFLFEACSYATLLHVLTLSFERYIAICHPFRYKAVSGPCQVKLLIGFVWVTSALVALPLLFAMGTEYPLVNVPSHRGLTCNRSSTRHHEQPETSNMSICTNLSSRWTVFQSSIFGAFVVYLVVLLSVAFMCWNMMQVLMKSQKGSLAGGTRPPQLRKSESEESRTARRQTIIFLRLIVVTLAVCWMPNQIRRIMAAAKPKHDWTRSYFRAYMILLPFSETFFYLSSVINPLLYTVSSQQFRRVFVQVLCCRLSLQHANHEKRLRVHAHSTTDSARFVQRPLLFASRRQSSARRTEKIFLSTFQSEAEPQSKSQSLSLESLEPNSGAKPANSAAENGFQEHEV
Test: Positive allosteric activity at human GPR39 receptor expressed in CHO cells assessed as increase in zn2+ induced ca2+ flux
Assay type: cell-based
Assignment: determine reported pEC50 for the given molecules.
Numbers only, as −log10 of the molar value.

Example results:
- O=C(Cc1nn(CC2CCC2)c(=O)c2ccccc12)NCc1ccccn1: 5.39
- Cc1cc(N2CCC(c3ccccc3)C2)n2ncc(-c3ccccn3)c2n1 (single isomer, unassigned; enantiomer 1): 6.85

Here's the next entry for you.
// query pEC50 value for entry NC(Cc1cnc[nH]1)c1nc2ccc(-c3ccccc3)cc2c(=O)[nH]1 (configuration not stated)
6.60

* * *

Target: G-protein coupled receptor 39 (Homo sapiens) (UniProt O43194)
Assay: Positive allosteric activity at human GPR39 receptor expressed in CHO cells assessed as increase in zn2+ induced ca2+ flux relative to Zn2+
Type: cell-based
Details: filed as positive allosteric modulator
property.label: Emax (%)
Numbers only, in %.

Example results:
- Cn1cc(-c2ccc3nc(C(N)CCOCc4ccccc4)[nH]c(=O)c3c2)cn1 (configuration not stated): 83
- CNc1cc(-c2ccccn2)nc(NC2CCCCC2)n1: 88
- Cc1cc(N2CCC(c3ccccc3)C2)n2ncc(-c3ccccn3)c2n1 (single isomer, unassigned; enantiomer 2): 54
- O=C(Cc1nn(CC2CCC2)c(=O)c2ccccc12)NCc1ccccn1: 49

Okay, here is my list. What is Emax for each of these?
1. CNc1nc(Oc2ccccc2)cc(-c2ccccn2)n1
2. Cc1cc(N2CCC(c3ccccc3)C2)n2ncc(-c3ccccn3)c2n1 (single isomer, unassigned; enantiomer 1)
3. NC(Cc1cnc[nH]1)c1nc2ccc(-c3ccccc3)cc2c(=O)[nH]1 (configuration not stated)

[48, 65, 102]

* * *

Assignment: determine reported pEC50 for the given compounds.
Biological target: UniProt O43194
Sequence (O43194 whole entry): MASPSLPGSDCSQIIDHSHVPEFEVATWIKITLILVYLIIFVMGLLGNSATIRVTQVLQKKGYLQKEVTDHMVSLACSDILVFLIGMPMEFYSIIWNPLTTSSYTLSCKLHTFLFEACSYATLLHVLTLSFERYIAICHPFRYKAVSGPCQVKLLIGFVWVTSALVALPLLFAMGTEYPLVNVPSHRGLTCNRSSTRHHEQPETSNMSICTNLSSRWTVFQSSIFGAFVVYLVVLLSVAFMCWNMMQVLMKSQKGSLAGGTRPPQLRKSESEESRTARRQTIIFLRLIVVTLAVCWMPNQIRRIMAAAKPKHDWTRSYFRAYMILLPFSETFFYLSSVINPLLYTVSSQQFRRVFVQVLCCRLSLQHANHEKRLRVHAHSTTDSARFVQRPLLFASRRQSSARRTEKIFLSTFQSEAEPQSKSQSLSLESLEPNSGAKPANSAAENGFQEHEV
Test: Agonist activity at human GPR39 receptor expressed in CHO cells assessed as increase in ca2+ flux
Assay type: functional, cell-based
Answers are plain numbers, as −log10 of the molar value.

Example results:
- Cc1cc(NC(C)c2ccc(F)cc2)n2ncc(-c3ccccn3)c2n1 (single isomer, unassigned; enantiomer 2): 7.59
- Cc1cc(N2CCCC2c2cccnc2)n2ncc(-c3ccccn3)c2n1 (single isomer, unassigned; enantiomer 1): 7.10
- Cc1cc(NC(C)c2ccc(F)cc2)n2ncc(-c3ccccn3)c2n1 (single isomer, unassigned; enantiomer 1): 7.77
- CNC(=O)C(Nc1cc(C)nc2c(-c3ccccn3)cnn12)c1ccc(F)cc1 (racemic): 7.11
- CNc1nc(Oc2ccccc2)cc(-c2ccccn2)n1: 6.32

Okay, here is my list. What is pEC50 for each of these?
1. CNc1nc(NC2CCCCC2)cc(-c2ccccn2)n1
2. Cc1cc(NC(C)(C)c2ccc(F)cc2)n2ncc(-c3ccccn3)c2n1
3. Cc1cc(N2CCCC2c2ccccc2)n2ncc(-c3ccccn3)c2n1 (racemic)
4. N#Cc1ccc(N2CCN(Cc3cn4cc(Cl)ccc4n3)CC2)nc1
5. CNc1nc(NCc2ccc(NS(C)(=O)=O)cc2Cl)cc(-c2ccccn2)n1
6. CNc1nc(NCc2ccccc2Cl)cc(-c2ccccn2)n1

7.80
7.20
7.77
5.20
7.82
8.52

Okay, here is my list. What is pEC50 for each of these?
1. Cc1cc(N2CCCC2c2cccnc2)n2ncc(-c3ccccn3)c2n1 (single isomer, unassigned; enantiomer 2)
2. Cc1cc(NCc2ccc(F)cc2)n2ncc(-c3ccccn3)c2n1

1: 6.62; 2: 7.82

* * *

Assignment: determine reported EC50 for the given molecules.
Biological target: G-protein coupled receptor 39 (Homo sapiens, UniProt O43194)
Test: Agonist activity at human GPR39 receptor expressed in CHO cells assessed as increase in ca2+ flux
Assay type: functional, cell-based

- Cc1cc(N2C(=O)CCC2c2ccccc2)n2ncc(-c3ccccn3)c2n1 (racemic): > 31.6 µM

Okay, here is my list. What is EC50 for each of these?
1. Cn1cc(-c2ccc3nc(C(N)CCOCc4ccccc4)[nH]c(=O)c3c2)cn1 (stereo unspecified)
2. CNc1cc(-c2ccccn2)nc(NC2CCCCC2)n1
3. O=C(Cc1nn(CC2CCC2)c(=O)c2ccccc12)NCc1ccccn1
4. NC(Cc1cnc[nH]1)c1nc2ccc(-c3ccccc3)cc2c(=O)[nH]1 (stereo unspecified)
5. Cc1cc(N2CCC(c3ccccc3)C2)n2ncc(-c3ccccn3)c2n1 (single isomer, unassigned; enantiomer 1)

1. > 50 µM
2. > 31.6 µM
3. > 50 µM
4. > 50 µM
5. > 10 µM
